target: histamine H2 -receptor (Cavia porcellus); construct: a spontaneously beating isolated portion of the guinea pig right atrium; from tissue; host or cells: guinea pig right atrium; assay: Inhibition of histamine-induced tachycardia in the isolated guinea-pig right atrium; format: cell-based; conditions: isolated guinea pig right atrium, 37° C., 60 min contact, histamine agonist; read-out: pA2 (converted)
Sequence (P47747 whole entry): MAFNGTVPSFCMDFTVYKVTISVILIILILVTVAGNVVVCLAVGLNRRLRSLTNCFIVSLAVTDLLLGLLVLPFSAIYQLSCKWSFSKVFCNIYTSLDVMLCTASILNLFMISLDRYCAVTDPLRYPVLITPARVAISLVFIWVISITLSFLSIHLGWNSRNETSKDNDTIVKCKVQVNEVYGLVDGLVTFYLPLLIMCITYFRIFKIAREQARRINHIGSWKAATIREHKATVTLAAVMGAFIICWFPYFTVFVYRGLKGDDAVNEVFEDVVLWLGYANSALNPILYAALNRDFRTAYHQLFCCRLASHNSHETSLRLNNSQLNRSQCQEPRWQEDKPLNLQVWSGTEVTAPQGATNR
Classify by measured Kb: met if it is equal to or exceeds 600 nM, not met if it is smaller.

Consider the following illustrative entries.
>>> assigned_class("COc1cccc(NCCCOc2cccc(CN3CCCCC3)c2)n1 [Example 7]")
"met"
>>> assigned_class("c1cnc(NCCCOc2cccc(CN3CCCCC3)c2)nc1 [Example 4]")
"met"
>>> assigned_class("Cn1c(NCCCOc2cccc(CN3CCCCC3)c2)nc2ccccc21 [Example 10]")
"met"
>>> assigned_class("c1ccc(NCCCOc2cccc(CN3CCCCC3)c2)nc1 [Example 6]")
"met"
>>> assigned_class("COc1cccnc1NCCCOc1cccc(CN2CCCCC2)c1 [Example 18]")
"met"
>>> assigned_class("c1cc(CN2CCCC2)cc(OCCCNc2nc3ccccc3s2)c1 [Example 22]")
"not met"

Problem: For this compound, is measured Kb 600 nM or higher? c1cc(CN2CCCCC2)cc(OCCCCc2nc3ccccc3[nH]2)c1 [Example 28]
Result: not met

Problem: For this compound, is measured Kb 600 nM or higher? c1cc(CN2CCCCC2)cc(OCCCc2nc3ccccc3[nH]2)c1 [Example 27]
Result: not met

====

target: histamine H2 -receptor (Cavia porcellus); construct: a spontaneously beating isolated portion of the guinea pig right atrium; from tissue; host or cells: guinea pig right atrium; assay: Inhibition of histamine-induced tachycardia in the isolated guinea-pig right atrium; assay type: cell-based; settings: isolated guinea pig right atrium, 37° C., 60 min contact, histamine agonist; read-out: pA2 (converted)
REPORTED ENDPOINT: Kb (µM)
Answer with a number only, understood to be in µM.

>>> reading("CN(C)Cc1cccc(OCCCNc2nc3ccccc3s2)c1")
1.26
>>> reading("c1cc(CN2CCCCC2)cc(OCCc2c[nH]cn2)c1")
25.1

Problem: Record request: Kb value, item c1cc(CN2CCCCC2)cc(OCCCNc2nc3ccccc3o2)c1
Result: 0.0631

====

target: brain histamine H2 -receptor (Cavia porcellus); construct: from tissue; host or cells: guinea pig cerebral cortex membranes; experiment: Inhibition of 3H-tiotidine binding to guinea pig cerebral cortex membranes; details: 3H-tiotidine, guinea pig cerebral cortex membranes; read-out: pKi cortex (converted)
Sequence (P47747 whole entry): as above
Binary call on Ki with cut-off 0.2 µM: strictly below means class 1, and equality or higher means class 0.

Consider the following illustrative entries.
>>> assigned_class("Cc1nc(NCCCOc2cccc(CN3CCCCC3)c2)sc1C")
"class 1"
>>> assigned_class("c1cc(CN2CCCC2)cc(OCCCNc2nc3ccccc3s2)c1")
"class 0"
>>> assigned_class("c1cc(CN2CCCCC2)cc(OCCc2c[nH]cn2)c1")
"class 0"
>>> assigned_class("c1cc(CN2CCCCC2)cc(OCCCNc2ncnc3ccccc23)c1")
"class 1"
>>> assigned_class("c1ccc(NCCCOc2cccc(CN3CCCCC3)c2)nc1")
"class 1"
>>> assigned_class("COc1cccc(NCCCOc2cccc(CN3CCCCC3)c2)n1")
"class 0"
>>> assigned_class("c1cc(CN2CCCCC2)cc(OCCCNc2nc3ccccc3o2)c1")
"class 1"
>>> assigned_class("Cn1c(NCCCOc2cccc(CN3CCCCC3)c2)nc2ccccc21")
"class 1"
>>> assigned_class("c1cc(CN2CCCCC2)cc(OCCNc2nc3ccccc3s2)c1")
"class 0"
>>> assigned_class("CN(C)Cc1cccc(OCCCNc2nc3ccccc3s2)c1")
"class 0"

Problem: Hi there! Is Ki for COc1cccnc1NCCCOc1cccc(CN2CCCCC2)c1 below 0.2 µM, do you know?
Result: class 1

Problem: Hi there! Is Ki for c1cc(CN2CCCCC2)cc(OCCCNc2nc3ccccc3[nH]2)c1 below 0.2 µM, do you know?
Result: class 1

Problem: Hi there! Is Ki for c1cc(CN2CCCCC2)cc(OCCCCNc2nc3ccccc3s2)c1 below 0.2 µM, do you know?
Result: class 1

Attribution: patent US4952589A
